Target System: Peroxisome proliferator-activated receptor gamma (Homo sapiens, UniProt P37231); note: assay procedure not described here
Sequence (P37231 whole entry): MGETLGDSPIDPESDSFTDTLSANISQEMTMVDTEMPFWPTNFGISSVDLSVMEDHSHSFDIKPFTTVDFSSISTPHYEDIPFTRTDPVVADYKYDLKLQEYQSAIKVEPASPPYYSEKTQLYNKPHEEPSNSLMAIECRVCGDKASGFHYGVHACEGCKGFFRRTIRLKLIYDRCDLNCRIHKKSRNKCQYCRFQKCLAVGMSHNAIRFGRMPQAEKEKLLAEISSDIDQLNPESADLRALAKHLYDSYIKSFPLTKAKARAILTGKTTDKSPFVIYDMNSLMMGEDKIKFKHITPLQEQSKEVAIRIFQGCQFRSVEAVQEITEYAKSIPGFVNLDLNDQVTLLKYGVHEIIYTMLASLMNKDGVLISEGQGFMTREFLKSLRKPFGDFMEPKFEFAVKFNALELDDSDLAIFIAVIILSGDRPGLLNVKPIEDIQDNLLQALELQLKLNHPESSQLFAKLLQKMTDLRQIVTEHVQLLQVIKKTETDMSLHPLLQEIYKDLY
Assay type: functional
Record form. Attribute: AC50. Fill in for each entry.

Q: Dear colleague, I am looking for the recorded AC50 of the following molecule: O=C1[C@@H]2[C@H]3CC[C@H](C3)[C@@H]2C(=O)N1C[C@@H]1CCCC[C@H]1CN1CCN(c2nsc3ccccc23)CC1
A: > 30 µM

Q: GET /values?readout=AC50&item= O=C(O)[C@H]1/C(=C/CO)O[C@@H]2CC(=O)N21
A: > 30 µM

Q: Would you kindly share the measured AC50 for CCOCC(O)COc1ccc(NC(=O)CC[S+](C)C)cc1 (stereo unspecified) ?
A: > 30 µM

Q: Consider the molecule shown here: O=C(O)c1nn(Cc2ccc(Cl)cc2Cl)c2ccccc12 What is its recorded AC50?
A: > 30 µM

Q: May I ask what AC50 has been recorded for CN(C)CCOC(c1ccc(Cl)cc1)c1ccccn1 (stereo unspecified) ?
A: > 30 µM

Q: Given Cn1cnc2c(F)c(Nc3ccc(Br)cc3F)c(C(=O)NOCCO)cc21 , state its recorded AC50.
A: > 30 µM

Q: Which measured AC50 value corresponds to CN1CC2c3ccccc3Oc3ccc(Cl)cc3C2C1 (stereo unspecified) ?
A: > 30 µM

Q: Which measured AC50 value corresponds to CC(C)(CO)c1cc2cc(NC(=O)C3(c4ccc5c(c4)OC(F)(F)O5)CC3)c(F)cc2n1C[C@@H](O)CO ?
A: > 30 µM

Q: Which AC50 reading was recorded for the molecule C[C@@H](O)[C@H]1C(=O)N2C(C(=O)O)=C(SCCN=CN)C[C@H]12 [IMIPENEM ANHYDROUS] ?
A: > 300 µM

Q: Sample N[C@@H](Cc1cc(I)c(Oc2cc(I)c(O)c(I)c2)c(I)c1)C(=O)O — what was its AC50?
A: > 30 µM

Q: Item under review: CCC(=O)O[C@H](CC(=O)O)C[N+](C)(C)C [LEVOCARNITINE PROPIONATE] . Reported AC50?
A: > 30 µM

Q: Bench note: what AC50 did CCCCCCCC(=O)CC[C@@H]1[C@@H](C/C=C\CCCC(=O)O)[C@@H](O)C[C@H]1O show?
A: > 30 µM

Q: Dear colleague, I am looking for the recorded AC50 of the following molecule: C[C@]12C=CC(=O)C=C1C(Cl)=C[C@@H]1[C@@H]2[C@@H](O)C[C@@]2(C)[C@H]1CC[C@]2(O)C(=O)CO
A: > 30 µM

Q: # AC50 lookup, item CC(=O)OCC1=C(C(=O)O)N2C(=O)[C@@H](NC(=O)Cc3cccs3)[C@H]2SC1
A: > 30 µM

Q: I'd like to know its AC50. The molecule in question is COc1cccc2c1C(=O)c1c(O)c3c(c(O)c1C2=O)C[C@@](O)(C(=O)CO)C[C@@H]3O[C@H]1C[C@H](N)[C@H](O)[C@H](C)O1
A: > 10 µM

Q: Sample CCC[C@@]1(CCc2ccccc2)CC(O)=C([C@H](CC)c2cccc(NS(=O)(=O)c3ccc(C(F)(F)F)cn3)c2)C(=O)O1 — what was its AC50?
A: 6.9 µM
